// cross-study collection: IC50 for Matrix metalloproteinase-9 (Homo sapiens)
Could you mark each record 1.0 if its IC50 falls strictly under 5 nM, and 0.0 if it equals or exceeds it?

Problem: State whether 5 nM exceeds IC50 recorded for COc1ccc(S(=O)(=O)N(CCn2cc(CNS(=O)(=O)c3ccc(F)cc3)nn2)[C@@H](C(=O)NO)C(C)C)cc1 .
Solution: 1.0

Problem: State whether 5 nM exceeds IC50 recorded for COc1ccc(S(=O)(=O)N2CC(O)CN(S(=O)(=O)c3ccc(OC)cc3)C2C(=O)NO)cc1 (centres undefined) .
Solution: 1.0

Problem: State whether 5 nM exceeds IC50 recorded for CC(C)ON(CC(=O)NO)S(=O)(=O)c1ccc(-c2ccc(F)cc2)s1 .
Solution: 0.0

Problem: State whether 5 nM exceeds IC50 recorded for O=C(OCc1ccc(Br)cc1)c1cccc(=O)[nH]1 .
Solution: 0.0

Problem: State whether 5 nM exceeds IC50 recorded for COc1ccc(S(=O)(=O)N(CC(=O)NC(c2ccccc2)c2ccccc2)C(CCSCc2ccccc2)C(=O)NO)cc1 (centres undefined) .
Solution: 1.0
